experimental target: HLA-A*68:02
assay details: IEDB peptide-MHC binding, purified MHC/direct/fluorescence; filed as Kd, often an IC50 or EC50 that approximates it; bounds were set here for any values at or beyond the usual limits of such assays
run parameters: source organism: Vibrio vulnificus YJ016

# sequence content, experimental target, Kd
rows = [
    ("TSCAPMMQK", "HLA-A*68:02", "≥ 20 µM"),
]

----------
experimental target: HLA-A*01:01
assay details: IEDB peptide-MHC binding, purified MHC/direct/fluorescence; filed as Kd, often an IC50 or EC50 that approximates it; bounds were set here for any values at or beyond the usual limits of such assays
run parameters: source organism: Mycobacterium tuberculosis C
pKd: −log10 of the molar value.

# sequence content, pKd
measured = [
    ("IIRTENRPL", "≤ 4.70"),
]

Cited source for all entries: the Immune Epitope Database (IEDB)
